Assay Overview: Anti-cholinergic side-effect: inhibition of carbachol-stimulated salivation in the rat
Design: species or system Sprague-Dawley rats
Test Context: in vivo, sc, administered subcutaneously, carbachol 0.6 mg/kg intraperitoneally after 1 hour, read-out: Salivation-inhibiting action, ED 50
Measured Property: ED50 at 1 h

{"columns": ["Compound", "ED50 at 1 h"],
 "data": [
  ["CN1CCN(CC(=O)N2c3ccccc3C(=O)Nc3cccnc32)CC1 [Pirenzepine, reference compound]", "2 mg/kg"],
  ["CN1CCN(C(=O)/C=C2/c3ccccc3NC(=O)c3ccccc32)CC1 [Example 1 cis]", "50 mg/kg"]
]}

We next turn to a different compound, shown below.
Ask: Recorded ED50 at 1 h for CN1CCN(C(=O)C=C2c3ccccc3NC(=O)c3ccccc32)CC1 (mixture of isomers) [Example 1 cis/trans] , please?
Result: 99 mg/kg

Value source: patent US4399139A
